Target: T1, native PRLR expressing T47D cells (Homo sapiens, UniProt P16471)
T1 construct: a native PRLR expressing cell line (T47D); endogenous in cells; host or cells: T47D
T1 sequence (P16471 25-622): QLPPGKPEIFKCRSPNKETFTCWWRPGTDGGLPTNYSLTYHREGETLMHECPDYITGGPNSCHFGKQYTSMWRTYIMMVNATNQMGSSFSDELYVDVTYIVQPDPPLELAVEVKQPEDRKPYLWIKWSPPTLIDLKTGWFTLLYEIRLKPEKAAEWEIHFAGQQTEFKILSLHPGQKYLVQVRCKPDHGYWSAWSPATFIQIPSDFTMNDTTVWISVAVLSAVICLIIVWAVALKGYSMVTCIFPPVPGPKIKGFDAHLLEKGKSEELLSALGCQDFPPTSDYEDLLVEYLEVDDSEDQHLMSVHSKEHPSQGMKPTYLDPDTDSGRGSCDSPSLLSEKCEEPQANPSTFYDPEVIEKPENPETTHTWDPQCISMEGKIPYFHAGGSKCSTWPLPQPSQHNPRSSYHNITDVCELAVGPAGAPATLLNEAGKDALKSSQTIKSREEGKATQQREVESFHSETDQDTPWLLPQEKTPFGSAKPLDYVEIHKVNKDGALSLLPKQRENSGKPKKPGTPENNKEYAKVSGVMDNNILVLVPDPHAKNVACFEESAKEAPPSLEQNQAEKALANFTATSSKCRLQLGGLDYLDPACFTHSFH
Test: FACS cell surface binding
Listed next: entries and their corresponding FACS Cell Binding.
Give the value, in units of Fold Above Background, as a plain number.

Solved entries:
| molecule | FACS Cell Binding / Fold Above Background |
| --- | --- |
| H1H6793P: fully human anti-PRLR antibody, human IgG1 Fc; HCVR/LCVR SEQ ID NOs 146/154 (antibody, V domains shown) VH: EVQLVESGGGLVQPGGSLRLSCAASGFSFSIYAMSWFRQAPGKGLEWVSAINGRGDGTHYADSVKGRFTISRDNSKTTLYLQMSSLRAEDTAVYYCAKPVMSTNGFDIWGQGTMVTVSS VL: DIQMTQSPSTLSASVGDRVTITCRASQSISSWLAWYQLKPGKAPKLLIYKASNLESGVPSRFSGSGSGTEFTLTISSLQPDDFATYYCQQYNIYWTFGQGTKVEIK | 43 |
| H1H6762P: fully human anti-PRLR antibody, human IgG1 Fc; HCVR/LCVR SEQ ID NOs 2/10 (antibody, V domains shown) VH: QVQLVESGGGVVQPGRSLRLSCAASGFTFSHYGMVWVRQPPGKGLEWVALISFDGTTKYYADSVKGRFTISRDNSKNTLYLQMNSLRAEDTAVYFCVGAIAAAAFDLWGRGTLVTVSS VL: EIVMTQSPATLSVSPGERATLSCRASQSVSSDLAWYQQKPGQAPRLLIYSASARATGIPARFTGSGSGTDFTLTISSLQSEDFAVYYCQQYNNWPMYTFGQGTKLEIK | 38 |

Please report the recorded FACS Cell Binding for H1H6792P: fully human anti-PRLR antibody, human IgG1 Fc; HCVR/LCVR SEQ ID NOs 130/138 (antibody, V domains shown) VH: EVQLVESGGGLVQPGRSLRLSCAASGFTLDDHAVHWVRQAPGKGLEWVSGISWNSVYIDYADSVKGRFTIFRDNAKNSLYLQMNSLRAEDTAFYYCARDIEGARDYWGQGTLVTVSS VL: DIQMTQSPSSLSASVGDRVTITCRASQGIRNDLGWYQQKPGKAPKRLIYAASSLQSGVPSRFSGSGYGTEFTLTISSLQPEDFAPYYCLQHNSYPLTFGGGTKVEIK .
37

Please report the recorded FACS Cell Binding for H1H6774P: fully human anti-PRLR antibody, human IgG1 Fc; HCVR/LCVR SEQ ID NOs 34/42 (antibody, V domains shown) VH: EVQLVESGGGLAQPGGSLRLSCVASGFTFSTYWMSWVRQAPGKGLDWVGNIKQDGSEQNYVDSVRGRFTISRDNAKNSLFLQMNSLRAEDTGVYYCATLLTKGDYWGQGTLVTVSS VL: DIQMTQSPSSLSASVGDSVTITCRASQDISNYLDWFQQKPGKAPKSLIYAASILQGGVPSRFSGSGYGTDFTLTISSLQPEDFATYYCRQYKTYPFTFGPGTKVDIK .
39

From: patent US10925971B2
